Listed next: entries and their corresponding EC50 pM, IFN gamma expression in PBMCs, + 300 nM BP.
Target: T1, human IL-18 binding protein (IL-18BP) (human, UniProt O95998 31-194)
T1 sequence (looked up): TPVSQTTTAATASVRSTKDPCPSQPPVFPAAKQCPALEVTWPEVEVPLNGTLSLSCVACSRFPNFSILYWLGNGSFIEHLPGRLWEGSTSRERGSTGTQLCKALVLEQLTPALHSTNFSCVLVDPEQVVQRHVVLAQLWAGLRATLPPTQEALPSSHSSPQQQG
Assay: cell-based or functional assay
Write the answer as a number in pM, unit excluded.

Recorded EC50 pM, IFN gamma expression in PBMCs, + 300 nM BP, per entry:
binder="IL-18 variant G3V, M60K (ligand) YFVKLESKLSVIRNLNDQVLFIDQGNRPLFEDMTDSDMRDNAPRTIFIISMYKDSQPRGKAVTISVKSEKISTLSSENKIISFKEMNPPDNIKDTKSDIIFFQRSVPGHDNKMQFESSSYEGYFLASEKERDLFKLILKKEDELGDRSIMFTVQNED" numeric_value=14.4
binder="IL-18 variant G3T, M60K, D157E (ligand) YFTKLESKLSVIRNLNDQVLFIDQGNRPLFEDMTDSDMRDNAPRTIFIISMYKDSQPRGKAVTISVKSEKISTLSSENKIISFKEMNPPDNIKDTKSDIIFFQRSVPGHDNKMQFESSSYEGYFLASEKERDLFKLILKKEDELGDRSIMFTVQNEE" numeric_value=323
binder="IL-18 variant G3V, M60K, D157E (ligand) YFVKLESKLSVIRNLNDQVLFIDQGNRPLFEDMTDSDMRDNAPRTIFIISMYKDSQPRGKAVTISVKSEKISTLSSENKIISFKEMNPPDNIKDTKSDIIFFQRSVPGHDNKMQFESSSYEGYFLASEKERDLFKLILKKEDELGDRSIMFTVQNEE" numeric_value=13

Request: What does the record list as EC50 pM, IFN gamma expression in PBMCs, + 300 nM BP for IL-18 variant G3T, M60K (ligand) YFTKLESKLSVIRNLNDQVLFIDQGNRPLFEDMTDSDMRDNAPRTIFIISMYKDSQPRGKAVTISVKSEKISTLSSENKIISFKEMNPPDNIKDTKSDIIFFQRSVPGHDNKMQFESSSYEGYFLASEKERDLFKLILKKEDELGDRSIMFTVQNED ?
Response: 117

Request: What does the record list as EC50 pM, IFN gamma expression in PBMCs, + 300 nM BP for Comparator 1 (human IL-18 variant M51K, K53S, Q56L, P57A, M60L, S105D, D110S, N111R) (ligand) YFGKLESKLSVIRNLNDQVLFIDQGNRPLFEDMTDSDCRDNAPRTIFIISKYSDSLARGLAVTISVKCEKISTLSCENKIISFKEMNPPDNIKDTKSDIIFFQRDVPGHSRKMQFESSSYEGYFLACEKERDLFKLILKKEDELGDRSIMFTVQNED ?
Response: 1.82
